A collection of binders and their measured Kd
# testedTarget: human ApoC3 (human)
# Sequence (chain, as listed by the source): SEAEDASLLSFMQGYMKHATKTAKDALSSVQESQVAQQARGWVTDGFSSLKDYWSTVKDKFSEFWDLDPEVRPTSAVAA
# protocolDescription: SPR pH 7.4

{"binder": "mAb16 (antibody, V domains shown) VH: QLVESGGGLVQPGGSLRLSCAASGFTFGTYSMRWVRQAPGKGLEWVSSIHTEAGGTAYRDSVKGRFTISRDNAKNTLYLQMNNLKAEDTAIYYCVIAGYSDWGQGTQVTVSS VL: DIVMTQSPLSLPVTPGESASISCKTSQGLVHSGGKTYFYWFLQKPGQSPQQLIYQVSNRASGVPDRFTGSGSGTDFTLKISRVEAEDAGVYYCAHGTYYPHTFGSGTRLEIK", "unitString": "nM", "Kd": 0.687}
{"binder": "5E5VH5_VL8 IgG1 (antibody, V domains shown) VH: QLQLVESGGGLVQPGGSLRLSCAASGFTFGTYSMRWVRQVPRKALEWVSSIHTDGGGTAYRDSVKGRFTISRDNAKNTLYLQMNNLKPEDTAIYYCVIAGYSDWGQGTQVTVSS VL: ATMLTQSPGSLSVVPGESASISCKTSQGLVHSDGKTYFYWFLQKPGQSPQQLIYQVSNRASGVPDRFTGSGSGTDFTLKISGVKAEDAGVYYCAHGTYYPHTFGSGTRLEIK", "unitString": "nM", "Kd": 0.975}
{"binder": "mAb12 (antibody, V domains shown) VH: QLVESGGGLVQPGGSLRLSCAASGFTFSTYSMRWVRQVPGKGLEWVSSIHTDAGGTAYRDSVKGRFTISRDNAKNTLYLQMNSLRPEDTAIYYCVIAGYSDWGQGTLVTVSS VL: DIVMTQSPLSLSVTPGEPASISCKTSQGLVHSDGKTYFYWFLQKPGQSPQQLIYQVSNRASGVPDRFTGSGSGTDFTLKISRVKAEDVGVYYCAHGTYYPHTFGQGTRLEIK", "unitString": "nM", "Kd": 0.0655}
